Consider the following molecules; for each one, report its DC50.
- SYSTEM: CDK12 (Homo sapiens, UniProt Q9NYV4)
- Sequence (Q9NYV4 whole entry): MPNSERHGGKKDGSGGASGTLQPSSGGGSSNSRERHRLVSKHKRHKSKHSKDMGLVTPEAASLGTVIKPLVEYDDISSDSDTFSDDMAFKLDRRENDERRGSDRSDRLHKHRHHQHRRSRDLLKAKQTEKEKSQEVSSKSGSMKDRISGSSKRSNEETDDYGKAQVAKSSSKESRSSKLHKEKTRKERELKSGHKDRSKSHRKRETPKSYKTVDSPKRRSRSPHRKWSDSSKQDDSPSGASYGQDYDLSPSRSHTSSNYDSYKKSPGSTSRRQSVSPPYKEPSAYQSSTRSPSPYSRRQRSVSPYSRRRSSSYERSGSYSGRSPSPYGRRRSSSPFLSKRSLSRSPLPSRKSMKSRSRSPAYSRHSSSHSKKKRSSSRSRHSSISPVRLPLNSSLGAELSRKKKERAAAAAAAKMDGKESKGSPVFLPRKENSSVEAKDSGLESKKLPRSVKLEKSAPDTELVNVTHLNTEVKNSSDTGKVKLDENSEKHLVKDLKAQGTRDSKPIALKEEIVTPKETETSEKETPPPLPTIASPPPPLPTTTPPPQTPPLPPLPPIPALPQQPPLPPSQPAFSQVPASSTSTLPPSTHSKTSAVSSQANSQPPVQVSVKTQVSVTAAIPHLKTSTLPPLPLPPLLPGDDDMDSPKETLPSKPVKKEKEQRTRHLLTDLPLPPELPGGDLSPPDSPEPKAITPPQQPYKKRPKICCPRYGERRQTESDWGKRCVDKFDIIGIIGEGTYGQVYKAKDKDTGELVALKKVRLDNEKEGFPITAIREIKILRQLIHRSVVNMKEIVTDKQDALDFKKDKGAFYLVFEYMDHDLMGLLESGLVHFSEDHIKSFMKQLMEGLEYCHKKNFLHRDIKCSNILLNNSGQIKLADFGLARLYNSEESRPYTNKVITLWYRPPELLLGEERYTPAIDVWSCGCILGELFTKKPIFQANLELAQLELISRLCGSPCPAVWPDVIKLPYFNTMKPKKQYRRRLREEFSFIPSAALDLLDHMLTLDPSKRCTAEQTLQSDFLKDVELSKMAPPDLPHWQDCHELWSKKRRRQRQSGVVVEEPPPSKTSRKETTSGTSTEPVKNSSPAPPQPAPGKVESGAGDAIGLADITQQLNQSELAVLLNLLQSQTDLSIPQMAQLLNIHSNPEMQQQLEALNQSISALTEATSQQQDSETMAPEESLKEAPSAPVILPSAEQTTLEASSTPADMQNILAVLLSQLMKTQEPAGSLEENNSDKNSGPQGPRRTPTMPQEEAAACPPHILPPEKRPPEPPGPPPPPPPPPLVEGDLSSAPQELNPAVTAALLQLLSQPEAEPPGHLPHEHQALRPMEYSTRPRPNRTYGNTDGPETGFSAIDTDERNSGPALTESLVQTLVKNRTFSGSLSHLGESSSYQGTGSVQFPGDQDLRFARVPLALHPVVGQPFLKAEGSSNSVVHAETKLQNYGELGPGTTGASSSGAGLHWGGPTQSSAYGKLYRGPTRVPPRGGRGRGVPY
- Sequence (O75909 whole entry partner): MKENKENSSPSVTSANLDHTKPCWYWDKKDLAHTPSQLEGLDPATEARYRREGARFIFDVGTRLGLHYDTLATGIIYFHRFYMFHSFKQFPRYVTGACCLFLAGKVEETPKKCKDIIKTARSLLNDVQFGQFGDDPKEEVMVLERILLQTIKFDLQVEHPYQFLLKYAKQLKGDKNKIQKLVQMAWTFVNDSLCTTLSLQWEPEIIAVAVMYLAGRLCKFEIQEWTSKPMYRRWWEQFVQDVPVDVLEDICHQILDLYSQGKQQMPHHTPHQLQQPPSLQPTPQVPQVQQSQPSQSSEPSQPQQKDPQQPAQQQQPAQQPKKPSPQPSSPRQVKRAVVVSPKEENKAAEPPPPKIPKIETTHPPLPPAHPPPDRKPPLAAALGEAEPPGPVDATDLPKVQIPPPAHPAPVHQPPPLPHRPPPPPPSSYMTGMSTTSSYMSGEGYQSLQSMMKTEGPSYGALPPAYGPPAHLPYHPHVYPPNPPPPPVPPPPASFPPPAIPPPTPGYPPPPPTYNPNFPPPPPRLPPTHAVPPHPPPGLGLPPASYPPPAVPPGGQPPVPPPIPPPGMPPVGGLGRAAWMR
- METHOD DESCRIPTION: Western blot degradation of CDK12 (Example 3)
- Format: cell-based
- Parameters: degradation of CDK12/13 protein in leukemia cells KASUMI-1, MV4-11, and Jurkat; endogenous in cells
- CONDITIONS: DC50 classes; cell line not given; read-out: CDK12 degradation Activity

Per the records, this molecule ( CC(=O)N(c1ccc(N2CCN(CC3CCN(c4ccc5c(c4)C(=O)N(C4CCC(=O)NC4=O)C5=O)CC3)CC2)cc1)[C@H]1CC[C@H](Nc2ncc3ccccc3n2)CC1 (stereo partly drawn) ) has DC50 equal to 500 to 1000 nM

Per the records, this molecule ( CC(=O)N(c1ccc(N2CCN(C(=O)/C=C/c3ccc4c(c3)C(=O)N(C3CCC(=O)NC3=O)C4=O)CC2)cc1)[C@H]1CC[C@H](Nc2ncc3ccccc3n2)CC1 (stereo partly drawn) ) has DC50 equal to 1000 to 3000 nM

Per the records, this molecule ( CC(=O)N(c1ccc(-c2ccc(N3CCN(c4cnn([C@H](C(=O)N5C[C@H](O)C[C@H]5C(=O)N[C@@H](C)c5ccc(-c6scnc6C)cc5)C(C)C)c4)CC3)nc2)cc1)[C@H]1CC[C@H](Nc2ncc3ccccc3n2)CC1 ) has DC50 equal to 100 to 500 nM

====

- METHOD DESCRIPTION: Liver microsome stability, rat
- Assay type: in vitro ADME
- CONDITIONS: liver microsomes
QUANTITY KIND: half-life

Per the records, this compound ( Cc1ncsc1-c1ccc([C@H](C)NC(=O)[C@@H]2C[C@@H](O)CN2C(=O)[C@@H](NC(=O)CN2CCN(c3ncc(-c4ccc(N(C(=O)NCc5ccccc5)[C@H]5CC[C@H](Nc6ccc(C#N)cn6)CC5)cc4)cn3)CC2)C(C)(C)C)cc1 [Formula 45] ) has half-life equal to > 45 min

Per the records, this compound ( Cc1ncsc1-c1ccc([C@H](C)NC(=O)[C@@H]2C[C@@H](O)CN2C(=O)[C@@H](NC(=O)CN2CCN(c3ccc(-c4ccc(N(C(=O)NCc5ccccc5)[C@H]5CC[C@H](Nc6ccc(C#N)cn6)CC5)cc4)cn3)CC2)C(C)(C)C)cc1 [Formula 18] ) has half-life equal to > 45 min

====

Consider the following compounds; for each one, report its DC50.
- SYSTEM: CDK13 (Homo sapiens, UniProt Q14004)
- Sequence (Q14004 whole entry, one chain of several): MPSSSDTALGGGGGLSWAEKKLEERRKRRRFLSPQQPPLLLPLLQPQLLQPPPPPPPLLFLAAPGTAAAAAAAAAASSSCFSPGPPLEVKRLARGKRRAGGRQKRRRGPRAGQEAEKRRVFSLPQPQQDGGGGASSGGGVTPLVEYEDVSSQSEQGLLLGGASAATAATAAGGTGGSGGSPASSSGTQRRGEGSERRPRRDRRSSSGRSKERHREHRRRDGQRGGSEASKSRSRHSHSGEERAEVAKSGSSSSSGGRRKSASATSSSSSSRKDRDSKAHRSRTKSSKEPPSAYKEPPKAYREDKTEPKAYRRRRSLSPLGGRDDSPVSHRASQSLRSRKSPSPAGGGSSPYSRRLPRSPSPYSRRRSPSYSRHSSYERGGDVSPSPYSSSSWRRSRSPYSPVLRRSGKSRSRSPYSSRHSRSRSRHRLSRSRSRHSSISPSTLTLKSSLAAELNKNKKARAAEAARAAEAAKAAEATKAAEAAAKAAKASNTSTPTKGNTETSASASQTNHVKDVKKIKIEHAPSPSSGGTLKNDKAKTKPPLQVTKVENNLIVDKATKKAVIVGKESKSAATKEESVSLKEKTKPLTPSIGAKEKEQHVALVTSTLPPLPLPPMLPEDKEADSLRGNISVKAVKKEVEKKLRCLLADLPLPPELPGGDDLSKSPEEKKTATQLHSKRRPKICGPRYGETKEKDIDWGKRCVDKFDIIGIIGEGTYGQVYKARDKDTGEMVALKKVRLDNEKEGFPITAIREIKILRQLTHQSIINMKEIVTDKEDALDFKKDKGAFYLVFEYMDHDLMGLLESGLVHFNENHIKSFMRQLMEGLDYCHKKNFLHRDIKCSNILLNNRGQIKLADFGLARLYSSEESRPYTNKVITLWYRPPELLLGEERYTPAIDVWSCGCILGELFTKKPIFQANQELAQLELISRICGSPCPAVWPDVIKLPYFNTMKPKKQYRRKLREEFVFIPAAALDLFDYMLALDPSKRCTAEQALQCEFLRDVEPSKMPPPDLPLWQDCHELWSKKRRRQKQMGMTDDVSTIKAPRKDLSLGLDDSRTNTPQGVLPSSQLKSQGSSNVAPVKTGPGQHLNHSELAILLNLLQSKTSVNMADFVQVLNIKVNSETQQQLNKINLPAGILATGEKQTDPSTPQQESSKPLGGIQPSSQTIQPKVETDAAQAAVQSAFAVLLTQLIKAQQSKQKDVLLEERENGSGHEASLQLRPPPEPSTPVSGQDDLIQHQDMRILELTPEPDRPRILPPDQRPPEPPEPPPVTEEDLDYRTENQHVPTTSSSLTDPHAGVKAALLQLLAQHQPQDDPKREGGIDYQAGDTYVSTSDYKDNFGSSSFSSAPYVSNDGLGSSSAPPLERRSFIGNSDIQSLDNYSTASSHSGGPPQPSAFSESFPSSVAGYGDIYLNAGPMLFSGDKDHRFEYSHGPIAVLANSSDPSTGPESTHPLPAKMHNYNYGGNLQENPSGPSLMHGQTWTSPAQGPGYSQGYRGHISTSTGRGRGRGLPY
- METHOD DESCRIPTION: Western blot degradation of CDK13 (Example 2)
- Type: cell-based
- Set-up: degradation of CDK12/13 protein in leukemia cells KASUMI-1, MV4-11, and Jurkat; endogenous in cells
- CONDITIONS: DC50 classes; cell line not given; read-out: CDK13 degradation Activity

Per the records, this compound ( Cc1ncsc1-c1ccc([C@H](C)NC(=O)[C@@H]2C[C@@H](O)CN2C(=O)[C@@H](NC(=O)CC2CCN(c3ccc(-c4ccc(N(C(=O)NCc5ccccc5)[C@H]5CC[C@H](Nc6ccc(C#N)cn6)CC5)cc4)cn3)C2)C(C)(C)C)cc1 (some centres unmarked) [Formula 30] ) has DC50 equal to 500 to 1000 nM

Per the records, this compound ( Cc1ncsc1-c1ccc([C@H](C)NC(=O)[C@@H]2C[C@@H](O)CN2C(=O)[C@@H](NC(=O)CN2CCN(c3ccc(-c4ccc(N(C(=O)NCc5ccccc5)[C@H]5CC[C@H](Nc6ccc(C#N)cn6)CC5)cc4)cn3)CC2)C(C)(C)C)cc1 [Formula 72] ) has DC50 equal to < 100 nM
